- System: MCF7
- EXPERIMENT_SUMMARY: Antiproliferative activity against human MCF7 cells after 72 hrs
- Type: functional, cell-based
- CONDITION_LABEL: Homo sapiens, MCF7, 72 h
REPORTED_METRIC: IC50 (µM)
Return type: number; implicit unit µM.

Consider the worked cases shown below.
COMPOUND	REPORTED_METRIC	ASSAY_RESULT
CCOC(=O)C(c1ccccc1)C(c1ccc(O)cc1)c1ccc(O)cc1 (centres undefined)	IC50	80.6
CCOC(=O)C(c1ccc(C)cc1)C(c1ccc(O)cc1)c1ccc(O)cc1 (centres undefined)	IC50	78.7
CCOC(=O)C(c1cccc(OC)c1)C(c1ccc(O)cc1)c1ccc(O)cc1 (centres undefined)	IC50	85.1

Now turn to the next compound.
Given item COc1cc(C(CO)C(c2ccc(O)c(OC)c2)c2ccc(O)c(OC)c2)ccc1O (stereo in doubt) , the value recorded as its IC50 is 104
